Cited source: paper PMC5517495

Hi there, I'd appreciate the recorded Kd for every entry that follows.
target: TATA-binding protein (TBP) (human, UniProt P20226 1-339); experiment: stopped-flow fluorescence (FRET); 0.1 uM ODN, 0.1-1.0 uM TBP; EMSA: 20 mM HEPES-KOH pH 7.6, 5 mM MgCl2, 70 mM KCl, 1 mM EDTA, 100 ug/ml BSA, 0.01% NP-40 (printed 0.0.1%), 5% glycerol, 25 C; stopped-flow buffer not stated; details: protein: recombinant; label: 5' TAMRA and 5' FAM; blunt
Sequence (P20226 whole entry): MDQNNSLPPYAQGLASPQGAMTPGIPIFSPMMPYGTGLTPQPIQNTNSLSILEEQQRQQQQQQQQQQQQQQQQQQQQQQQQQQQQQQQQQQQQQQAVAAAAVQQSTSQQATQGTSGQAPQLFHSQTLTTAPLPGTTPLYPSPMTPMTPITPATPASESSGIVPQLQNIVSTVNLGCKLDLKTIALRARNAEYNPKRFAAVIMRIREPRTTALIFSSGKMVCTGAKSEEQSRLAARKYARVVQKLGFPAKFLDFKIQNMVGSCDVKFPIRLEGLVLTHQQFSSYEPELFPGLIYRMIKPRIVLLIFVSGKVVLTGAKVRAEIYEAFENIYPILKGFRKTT
Numbers only, in nM.

binder	observed_property	value_measured
TPI1 promoter rs1800202 ancestral allele (stopped-flow) (dsDNA) DNA 1: CGCGGCGCTCTATATAAGTGGGCAGT DNA 2: ACTGCCCACTTATATAGAGCGCCGCG	Kd	1

Which Kd is listed for TPI1 promoter rs1800202 minor allele (stopped-flow) (dsDNA) DNA 1: CGCGGCGCTCTATAGAAGTGGGCAGT DNA 2: ACTGCCCACTTCTATAGAGCGCCGCG ?
19
